assay: In vivo pharmacokinetics in rat plasma (UPLC-MS/MS, NCA); design: species or system Sprague-Dawley (SD) rats; details: male, Sprague-Dawley, plasma, ip, 100 ug/kg, intraperitoneal, 100 μg/kg, read-out: Tmax
MEASURE: Tmax

{"columns": ["COMPOUND", "MEASURE", "VAL"],
 "data": [
  ["O=C(NCc1ccc(O)cc1)C1C(c2ccccc2)C(c2ccccc2)=NN1c1ccccc1 (stereo not shown) [BHX]", "Tmax", "5.62 h"]
]}

* * *

test: In vivo pharmacokinetics in rat plasma (UPLC-MS/MS, NCA); parameters: species or system Sprague-Dawley (SD) rats; conditions: male, Sprague-Dawley, plasma, ip, 50 ug/kg, intraperitoneal

{"columns": ["COMPOUND", "Cmax"],
 "data": [
  ["O=C(NCc1ccc(O)cc1)C1C(c2ccccc2)C(c2ccccc2)=NN1c1ccccc1 (stereo not shown)", "325 ng/mL"]
]}

Reference for the values: paper PMC5567253
